# testedOn: Protein c-Fos/Transcription factor Jun (Homo sapiens, UniProt P05412+P01100)
# Sequence (P05412 whole entry): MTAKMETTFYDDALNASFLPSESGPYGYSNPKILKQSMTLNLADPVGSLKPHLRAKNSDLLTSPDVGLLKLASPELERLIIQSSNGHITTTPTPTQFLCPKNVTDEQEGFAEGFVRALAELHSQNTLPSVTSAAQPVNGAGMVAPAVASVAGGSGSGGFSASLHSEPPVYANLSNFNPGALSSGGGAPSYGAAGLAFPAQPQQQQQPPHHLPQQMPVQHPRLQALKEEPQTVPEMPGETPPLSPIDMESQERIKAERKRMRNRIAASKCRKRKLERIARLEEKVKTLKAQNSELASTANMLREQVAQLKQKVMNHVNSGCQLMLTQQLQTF
# Sequence (P01100 whole entry): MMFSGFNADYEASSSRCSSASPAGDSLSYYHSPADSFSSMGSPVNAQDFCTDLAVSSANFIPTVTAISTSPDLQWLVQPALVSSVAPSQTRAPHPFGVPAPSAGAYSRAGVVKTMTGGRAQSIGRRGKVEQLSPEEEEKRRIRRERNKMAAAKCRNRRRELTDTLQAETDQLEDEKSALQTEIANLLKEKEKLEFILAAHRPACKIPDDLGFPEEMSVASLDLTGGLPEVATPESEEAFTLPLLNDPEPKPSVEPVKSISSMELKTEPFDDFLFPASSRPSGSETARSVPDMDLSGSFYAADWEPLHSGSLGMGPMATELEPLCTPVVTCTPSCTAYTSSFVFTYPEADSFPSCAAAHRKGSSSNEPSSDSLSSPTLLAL
# assayProtocol: Inhibition of AP-1 (activator protein-1) mediated transcriptional activation in Jurkat T-cells
Criterion: IC50 strictly less than 2000 nM. Met: Fulfilled. Not met: Not fulfilled.

INSERT INTO results (testsmiles, categorylabel) VALUES
  ('CCOC(=O)c1cnc(S(=O)(=O)c2ccccc2)nc1NN1C(=O)C=C(C)C1=O', 'Not fulfilled'),
  ('CCOC(=O)c1cnc(-c2ccccc2)nc1N(C(C)=O)N1C(=O)C=C(C)C1=O', 'Not fulfilled'),
  ('CCOC(=O)c1cnc(-c2cccc(OC)c2)nc1NN1C(=O)C=C(C)C1=O', 'Not fulfilled'),
  ('CCOC(=O)c1cnc(SC)nc1NN1C(=O)C=C(C)C1=O', 'Fulfilled'),
  ('CC1=CC(=O)N(Nc2nc(-c3cccs3)ncc2C#N)C1=O', 'Not fulfilled'),
  ('CCOC(=O)c1cnc(-c2ccc(C(F)(F)F)cc2)nc1NN1C(=O)C=C(C)C1=O', 'Fulfilled'),
  ('CC1=CC(=O)N(Nc2nc(-c3cccs3)ncc2-c2nnn(C)n2)C1=O', 'Fulfilled'),
  ('CCOC(=O)c1cnc(-c2ccc(Cl)cc2)nc1NN1C(=O)C=C(C)C1=O', 'Fulfilled'),
  ('CCOC(=O)c1cnc(Sc2ccccc2)nc1NN1C(=O)C=C(C)C1=O', 'Fulfilled'),
  ('CCOC(=O)c1cnc(-c2cnc3ccccc3c2)nc1NN1C(=O)C=C(C)C1=O', 'Not fulfilled'),
  ('CCOC(=O)c1cnc(C(=O)c2ccco2)nc1NN1C(=O)C=C(C)C1=O', 'Fulfilled'),
  ('CCOC(=O)c1cnc(C)nc1NN1C(=O)C=C(C)C1=O', 'Not fulfilled'),
  ('CCOC(=O)c1cnc(CC)nc1N(C)N1C(=O)C=C(C)C1=O', 'Not fulfilled'),
  ('CC1=CC(=O)N(Nc2nc(-c3cccs3)ncc2-c2nnc(C)o2)C1=O', 'Fulfilled'),
  ('CCOC(=O)c1cnc(-c2ccc(F)cc2)nc1NN1C(=O)C=C(C)C1=O', 'Fulfilled'),
  ('CC1=CC(=O)N(Nc2nc(-c3cccs3)ncc2-c2nc(C)co2)C1=O', 'Fulfilled'),
  ('CCOC(=O)c1cnc(C2CC2)nc1NN1C(=O)C=C(C)C1=O', 'Fulfilled'),
  ('CCOC(=O)c1cnc(-c2ccc(OC)cc2)nc1NN1C(=O)C=C(C)C1=O', 'Fulfilled'),
  ('CCOC(=O)c1cnc(-c2ccc(C)s2)nc1NN1C(=O)C=C(C)C1=O', 'Fulfilled'),
  ('CCOC(=O)c1cnc(-c2cccc([N+](=O)[O-])c2)nc1NN1C(=O)C=C(C)C1=O', 'Not fulfilled'),
  ('CCOC(=O)c1cnc(CC)nc1NN1C(=O)C=C(C)C1=O', 'Not fulfilled'),
  ('CC1=CC(=O)N(Nc2nc(-c3cccs3)ncc2-c2cc(C)no2)C1=O', 'Fulfilled');
